The values you see were collected from patent US20190367619A1.

Molecular target: T1, human galectin-10-His (human)
T1 construct: The last M of the tag may be Met1 of galectin-10; also called humanGal10-His; hGal10
T1 chain: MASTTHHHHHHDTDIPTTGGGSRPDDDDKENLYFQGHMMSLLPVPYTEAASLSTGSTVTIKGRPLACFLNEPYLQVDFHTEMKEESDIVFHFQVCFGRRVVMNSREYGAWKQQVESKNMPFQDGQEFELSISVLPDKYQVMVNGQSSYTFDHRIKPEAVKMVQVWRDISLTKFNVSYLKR
Assay: SPR Biacore T3000, scFv-human Fc captured
outcomeMeasure: pKd
Note on units: pKd is unitless, being -log10 of a concentration expressed in mol/L.

binder	pKd
7B07 scFv-human Fc (Fc fusion, also called 007B07; not shown: CH2-CH3 constant domains of human IgG1 (pUPEX50 scFv-Fc fusion vector)) scFv: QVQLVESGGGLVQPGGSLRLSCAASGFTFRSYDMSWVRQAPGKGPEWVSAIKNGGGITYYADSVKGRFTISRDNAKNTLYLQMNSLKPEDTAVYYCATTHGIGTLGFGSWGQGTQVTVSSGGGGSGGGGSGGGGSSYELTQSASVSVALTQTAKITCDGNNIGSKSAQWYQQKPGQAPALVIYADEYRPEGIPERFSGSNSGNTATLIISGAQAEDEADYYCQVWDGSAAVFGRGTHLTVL	9.10

For 11F02 scFv-human Fc (Fc fusion, also called 011F02; not shown: CH2-CH3 constant domains of human IgG1 (pUPEX50 scFv-Fc fusion vector)) scFv: ELQVVESGGGLVQPGGSLRLSCAASGFTFSTNYMNWVRQAPGKGLEWVSGITSHGARTYYADSVKGRFTISRDNSKNTLYLQMNSLKPEDTALYYCARTDHASLDAWGQGTLVTVSSGGGGSGGGGSGGGGSQTVVTQEPSLSVSPGGTVTLTCGLSSGSVTSSNYPGWYQQKPGQAPRTLIYNTNSRYSGVPNRFSGSISGNKAALTITGAQPEDEADYYCALYMGSSSYNTVFGGGTHLTVL , write its pKd.
8.27
